Target Desc: Tyrosine-protein phosphatase non-receptor type 1 (Homo sapiens)
Sequence (P18031 whole entry): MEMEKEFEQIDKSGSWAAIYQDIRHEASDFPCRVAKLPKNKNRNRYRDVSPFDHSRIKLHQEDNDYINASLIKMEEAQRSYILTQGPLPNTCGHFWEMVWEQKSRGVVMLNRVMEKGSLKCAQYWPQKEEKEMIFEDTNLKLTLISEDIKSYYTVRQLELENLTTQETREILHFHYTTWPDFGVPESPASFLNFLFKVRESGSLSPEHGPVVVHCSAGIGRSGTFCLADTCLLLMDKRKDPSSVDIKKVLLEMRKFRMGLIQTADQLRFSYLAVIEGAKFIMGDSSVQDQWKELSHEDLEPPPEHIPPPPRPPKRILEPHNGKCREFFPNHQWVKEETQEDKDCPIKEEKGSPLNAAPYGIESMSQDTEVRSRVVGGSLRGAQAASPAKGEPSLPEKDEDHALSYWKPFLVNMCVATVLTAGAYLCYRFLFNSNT
Assay Overview: Inhibition of recombinant human PTP1B using pNPP as substrate measured after 30 mins
Parameter: IC50 (µM)
Write the number in µM without appending the unit.

CCOS(=O)(=O)/C=C/c1ccc(OCC2=CC[C@@H]3C(C(=O)Nc4ccc(Oc5ccc(-c6ccccc6)cc5)cc4)=CO[C@@H](OC)[C@H]23)cc1 = 0.43
O=C(Nc1ccccc1F)C1=CO[C@@H](O[C@@H]2O[C@H](CO)[C@@H](O)[C@H](O)[C@H]2O)[C@@H]2C(CO)=CC[C@H]12 = 20.8

Form: molecule = CCOS(=O)(=O)/C=C/c1ccc(OCC2=CC[C@@H]3C(C(=O)OC)=CO[C@@H](OCc4ccccc4)[C@H]23)cc1 ; IC50 = 13.2

In plain terms, COC(=O)C1=CO[C@@H](OCc2ccccc2)[C@@H]2C(CO)=CC[C@H]12 has a documented IC50 of 40.3

Measured IC50 of O=C1C[C@@H](O[C@@H]2O[C@H](CO)[C@@H](O)[C@H](O)[C@H]2O)CO1 : 5.8

Given item CCO[C@@H]1OC=C(C(=O)OC)[C@H]2CC=C(CO)[C@@H]12 , the value recorded as its IC50 is 64.7

The molecule listed as COC(=O)C1=CO[C@@H](O[C@@H]2O[C@H](COCc3ccccc3)[C@@H](OCc3ccccc3)[C@H](OCc3ccccc3)[C@H]2OCc2ccccc2)[C@@H]2C(COCc3ccccc3)=CC[C@H]12 has a reported IC50 of 0.68

response.value for O=C(Nc1ccc(Oc2ccccc2)cc1)C1=CO[C@@H](O[C@@H]2O[C@H](COCc3ccccc3)[C@@H](OCc3ccccc3)[C@H](OCc3ccccc3)[C@H]2OCc2ccccc2)[C@@H]2C(COCc3ccccc3)=CC[C@H]12 (field: IC50) = 0.4

IC50 in this record for COc1ccccc1NC(=O)C1=CO[C@@H](O[C@@H]2O[C@H](CO)[C@@H](O)[C@H](O)[C@H]2O)[C@@H]2C(CO)=CC[C@H]12 : 50.8

Entry CCOS(=O)(=O)/C=C/c1ccc(OCC2=CC[C@@H]3C(C(=O)Nc4ccc(Oc5ccccc5)cc4)=CO[C@@H](OC)[C@H]23)cc1 , IC50 reported as 2.67
